These data points were gathered from a collection of fitness landscapes (doi:10.1126/science.1257360).

B1: PhoQ; a variant is named by its letters at X, in order, P23837 (parent)
chain: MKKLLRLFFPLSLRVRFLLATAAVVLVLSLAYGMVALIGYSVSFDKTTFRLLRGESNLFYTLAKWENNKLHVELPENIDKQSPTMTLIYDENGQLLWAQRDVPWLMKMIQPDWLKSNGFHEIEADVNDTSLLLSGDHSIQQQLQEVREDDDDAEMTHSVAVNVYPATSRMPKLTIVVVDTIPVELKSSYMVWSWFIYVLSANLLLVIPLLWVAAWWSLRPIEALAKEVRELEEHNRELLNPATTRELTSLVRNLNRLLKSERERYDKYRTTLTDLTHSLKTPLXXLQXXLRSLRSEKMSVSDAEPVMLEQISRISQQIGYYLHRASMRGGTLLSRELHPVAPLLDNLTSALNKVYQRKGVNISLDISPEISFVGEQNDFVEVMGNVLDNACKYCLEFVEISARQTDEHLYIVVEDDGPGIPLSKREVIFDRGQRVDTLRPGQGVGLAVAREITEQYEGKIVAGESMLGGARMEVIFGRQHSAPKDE

# Variants of: B1
# PROTOCOL: enrichment ratio after two sorts for PhoP signalling (ratio (wild type AVST 3.29)); higher = more functional
# EXPERIMENTAL CONTEXT: with PhoP (E. coli)
Whole data set: some 140,000 sequences, median “enrichment ratio after two sorts for PhoP signalling” near 0, cut for the highest 2% near 11. The list comes from a sample in which the highest values are over-represented; it also holds close analogues and randomly drawn sequences.
ASSAY ENDPOINT: enrichment ratio

AYMN ... ≤ 0.25
PIPY ... ≤ 0.25
RGSQ ... ≤ 0.25
KSIS ... ≤ 0.25
SVSH ... 10.5

Ask | Look at this variant and give its reported enrichment ratio. YFSG
Reply | ≤ 0.25

Ask | Likewise for WMHQ ?
Reply | ≤ 0.25

Ask | Likewise for ASAG ?
Reply | 7.21

Ask | Likewise for KDHR ?
Reply | ≤ 0.25

Ask | Likewise for LEWV ?
Reply | 11.9

Ask | Likewise for MESL ?
Reply | 13.9

Ask | Likewise for IILL ?
Reply | 1.2

Ask | Likewise for KACV ?
Reply | ≤ 0.25

Ask | Likewise for TNQM ?
Reply | 14.3

Ask | Likewise for SRLL ?
Reply | 10.3

Ask | Likewise for IVKK ?
Reply | ≤ 0.25

Ask | Likewise for SVCI ?
Reply | 10.4
